experimentalEndpoint: melting point (°C)
Numbers only here, please. The scale is °C.

| compound | experimentalEndpoint | measuredResult |
| --- | --- | --- |
| CC(C)=CCC/C(C)=C/C=C/C(C)=C/C=C/C(C)=C/C=C/C=C(C)/C=C/C=C(C)/C=C/C=C(\C)CCCC(C)(C)O | melting point | 171 |

What value of melting point has been recorded for this entry: `CCC#N`
-92.8

What value of melting point has been recorded for this entry: CC(C)(O)CC(C)(O)c1ccc(Cl)cc1 (stereo unspecified)
76.5

###

Recorded log10 vapour pressure (mmHg) by entry
# answer = number (no unit)

What value of log10 vapour pressure (mmHg) has been recorded for this entry: `CCCN(CCC)c1c([N+](=O)[O-])cc(C(F)(F)F)cc1[N+](=O)[O-]`
-4.34

What value of log10 vapour pressure (mmHg) has been recorded for this entry: C#CC(O)(C=CCl)CC (stereo not drawn)
-1

What value of log10 vapour pressure (mmHg) has been recorded for this entry: `C=C(C)CCl`
2.01

What value of log10 vapour pressure (mmHg) has been recorded for this entry: `FCc1ccccc1`
0.832

What value of log10 vapour pressure (mmHg) has been recorded for this entry: `CCCCCCCCCBr`
-0.921

What value of log10 vapour pressure (mmHg) has been recorded for this entry: `FC(F)=C(F)F`
4.39

What value of log10 vapour pressure (mmHg) has been recorded for this entry: `c1ccc2sccc2c1`
-0.624

What value of log10 vapour pressure (mmHg) has been recorded for this entry: `CCNc1nc(NCC)nc(OC)n1`
-5.62

What value of log10 vapour pressure (mmHg) has been recorded for this entry: `ClC=CCl`
2.3

What value of log10 vapour pressure (mmHg) has been recorded for this entry: `CCOc1ccc(NC(=O)OC(C)C)cc1OCC`
-4.2

What value of log10 vapour pressure (mmHg) has been recorded for this entry: CC1CCC(C)CC1 (stereo not drawn)
1.25

###

experimentalEndpoint: log10 vapour pressure (mmHg)
# answer = number (no unit)

What value of log10 vapour pressure (mmHg) has been recorded for this entry: `CC(C)OC(=O)Nc1cccc(Cl)c1`
-3.74

What value of log10 vapour pressure (mmHg) has been recorded for this entry: `C=COCC(C)C`
1.77

###

experimentalEndpoint: melting point (°C)
Numbers only here, please. The scale is °C.

What value of melting point has been recorded for this entry: `C=CCO`
-129

What value of melting point has been recorded for this entry: `CN(C)CCC=C1c2ccccc2CCc2ccccc21`
196

###

experimentalEndpoint: log10 vapour pressure (mmHg)
# answer = number (no unit)

Below, each entry is followed by its recorded log10 vapour pressure (mmHg) result.
| compound | log10 vapour pressure (mmHg) |
| --- | --- |
| CCc1ccc2ccccc2c1 | -1.5 |
| CC1COc2ccccc2N1C(=O)C(Cl)Cl (stereo unspecified) | -5.35 |
| O=C(O)CCCCC(=O)O | -6.5 |

What value of log10 vapour pressure (mmHg) has been recorded for this entry: `COc1cccc(OC)c1C(=O)O`
-6.72

What value of log10 vapour pressure (mmHg) has been recorded for this entry: `CCCCCCCCCCCCCCCCCCCCCl`
-5.62

###

Recorded boiling point by entry
Numbers only here, please. The scale is °C.

| molecule | boiling point [°C] |
| --- | --- |
| CC[N+](=O)[O-] | 114 |

Now for another entry.
What value of boiling point has been recorded for this entry: CCCCC(C)C(C)C (stereo not drawn)
140

###

Classify: Criterion met when boiling point is strictly less than 200 °C; Criterion not met when boiling point is not.

| compound | answerLabel |
| --- | --- |
| CCSc1ccc(C)cc1 | Criterion not met |
| CCOC(=O)C(C(=O)OCC)C(=O)OCC | Criterion not met |
| Cc1ccc(N=Nc2ccccc2)cc1 | Criterion not met |

Please let me know if `Nc1ccc(Nc2ccccc2)cc1` shows boiling point below 200 °C.
Criterion not met

Please let me know if `O=Cc1ccccc1Cl` shows boiling point below 200 °C.
Criterion not met

Please let me know if `C=CC(C)(C)C` shows boiling point below 200 °C.
Criterion met

Please let me know if `COc1ccc(O)c(C=O)c1` shows boiling point below 200 °C.
Criterion not met

Please let me know if `ClC(Cl)(Br)Br` shows boiling point below 200 °C.
Criterion met

Please let me know if `C=CC[Si](C)(C)C` shows boiling point below 200 °C.
Criterion met

Please let me know if CCCC(C)CC(C)CC (configuration not stated) shows boiling point below 200 °C.
Criterion met

Please let me know if `c1c2c(cc3c1CCCC3)CCCC2` shows boiling point below 200 °C.
Criterion not met

Please let me know if `CC(C)(C1CCCCC1)C1CCCCC1` shows boiling point below 200 °C.
Criterion not met

Please let me know if `CC(=O)N1CCCCC1` shows boiling point below 200 °C.
Criterion not met

Please let me know if `CC(C)CC(=O)c1ccccc1` shows boiling point below 200 °C.
Criterion not met

Please let me know if `COC(=O)CCS` shows boiling point below 200 °C.
Criterion met

Please let me know if `CC(=O)O[Si](C)(C)OC(C)=O` shows boiling point below 200 °C.
Criterion met

Please let me know if `CCC(C)(Br)CC` shows boiling point below 200 °C.
Criterion met

Please let me know if `OCCCCl` shows boiling point below 200 °C.
Criterion met

Please let me know if `O=C(O)C(F)(F)F` shows boiling point below 200 °C.
Criterion met

Please let me know if `Brc1ccc(Oc2ccccc2)cc1` shows boiling point below 200 °C.
Criterion not met

Please let me know if `OCCCCCC(F)(F)F` shows boiling point below 200 °C.
Criterion met

Please let me know if `CCCCCCC(=O)OCC` shows boiling point below 200 °C.
Criterion met

Please let me know if `Cc1cccc(NC=O)c1` shows boiling point below 200 °C.
Criterion not met

Please let me know if `Cc1cc(C)c(O)c(C)c1` shows boiling point below 200 °C.
Criterion not met

###

Recorded melting point by entry
Numbers only here, please. The scale is °C.

Below, each entry is followed by its recorded melting point result.
| compound | experimentalEndpoint | measuredResult |
| --- | --- | --- |
| CCc1cc(CC)cc(CC)c1 | melting point | -66.5 |
| COC(=O)C1(S(=O)(=O)c2ccccc2)CCCC1 | melting point | 56.5 |
| CC(C)(C)NC=O | melting point | 16 |
| Oc1cc(O)c(Cl)cc1Cl | melting point | 113 |
| Cc1ccc(C(=O)c2ccc(C)cc2)cc1 | melting point | 96.5 |
| Cc1nnc(NS(=O)(=O)c2ccc(N)cc2)s1 | melting point | 208 |

What value of melting point has been recorded for this entry: CCCC1C(=O)N2C(N(C)C)=Nc3ccc(C)cc3N2C1=O (stereo unspecified)
247

What value of melting point has been recorded for this entry: `CCC(N)=O`
81.3

What value of melting point has been recorded for this entry: `O=C[C@H](O)[C@@H](O)[C@@H](O)[C@H](O)C(=O)O`
166

What value of melting point has been recorded for this entry: `Cc1cncnc1`
30.5

What value of melting point has been recorded for this entry: `O=C1/C(=C/c2ccc(O)c(O)c2)Oc2cc(O)ccc21`
303

What value of melting point has been recorded for this entry: `CCCCCCCCCCCCCCc1ccccc1`
16

What value of melting point has been recorded for this entry: `CSc1nc2ccccc2s1`
44

What value of melting point has been recorded for this entry: `Cc1ncc(CO)c(C(=O)O)c1O`
248

What value of melting point has been recorded for this entry: `CCCCC(CC)(CO)CO`
43.8

What value of melting point has been recorded for this entry: `C[C@]12CC[C@H](O)C=C1CC[C@@H]1[C@@H]2CC[C@]2(C)[C@@H](c3ccc(=O)oc3)CC[C@]12O`
235

What value of melting point has been recorded for this entry: `CCCCOCCOCCO`
-68

What value of melting point has been recorded for this entry: `CCCCCCCCCCCCCCCCCCCC`
36.8

What value of melting point has been recorded for this entry: Cc1c(C(C)OC(=O)CCC(=O)O)oc2ccc(C3=CC(=O)OC3)cc12 (stereo unspecified)
144

What value of melting point has been recorded for this entry: `C1CN2CCC1CC2`
158

###

Param threshold (100 °C) applies to boiling point; output yes when value >= threshold, no when value < threshold.

Solved entries:
| compound | answerLabel |
| --- | --- |
| COCCOCCO | yes |
| CC(C)O | no |
| CCCCS(=O)(=O)CCCC | yes |
| CCC(C)(C)I | yes |

Then there is this compound:
Quick check, boiling point >= 100 °C? C1CCC2C(C1)CCC1C3CCCCC3CCC21 (stereo not given)
yes

###

Recorded log10 BCF by entry
conditions: fish
# answer = number (no unit)

Below, each entry is followed by its recorded log10 BCF result.
| smilesRecord | log10 BCF |
| --- | --- |
| c1ccc(Nc2ccc(Nc3ccccc3)cc2)cc1 | 3.12 |
| O=[N+]([O-])c1ccc(Cl)c(S(=O)(=O)[O][Na])c1 | 0.48 |
| O=[N+]([O-])c1cc(Cl)c(Cl)cc1Cl | 1.84 |
| Nc1ccc2c(c1)C(=O)c1ccccc1C2=O | 1.51 |
| CCNc1cccc2ccccc12 | 2.32 |

What value of log10 BCF has been recorded for this entry: `O=C(O)c1ccccc1Cl`
1

What value of log10 BCF has been recorded for this entry: `ClC(Cl)C(Cl)Cl`
1.11

What value of log10 BCF has been recorded for this entry: `CCOP(=O)(Sc1ccccc1)Sc1ccccc1`
1.51
